system: mouse p16Ink4a+/- lung fibroblasts (INKBRITE, bleomycin-injured); experiment: percentage of GFP+ (p16Ink4a+) fibroblasts among all cells in well; higher = less depletion of p16Ink4a+ cells, active = 20 or less; details: 1 µM; 3 days
The campaign covered roughly 1,800 compounds. About 50 (3%) showed activity. For the sample, actives were picked, then their nearest neighbours and some compounds at random.
Select the correct class. Options are Y = active, N = inactive and nothing else.

CC1(C)CCC(C)(C)c2cc(NC(=O)c3ccc(C(=O)O)cc3)ccc21    N
CN1CCN(CCOc2cc(OC3CCOCC3)c3c(Nc4c(Cl)ccc5c4OCO5)ncnc3c2)CC1    N
N=C(N)N/N=C/c1c(Cl)cccc1Cl    N
NC(=S)N/N=C/c1ncccc1N    Y
CC(C)OC(=O)C(C)(C)Oc1ccc(C(=O)c2ccc(Cl)cc2)cc1 [Fenofibrate]    N

Req: Which outcome was assigned to CCCOc1ccc(C(=O)OCCN(CC)CC)cc1N in this test?
Resp: N

Req: Please state the recorded outcome for this compound: COc1ccc(COc2ccc(Cc3cnc(N)nc3N)cc2OC)cc1
Resp: N

Req: Hello, I am checking results. What call was entered for C=C(c1ccc(C(=O)O)cc1)c1cc2c(cc1C)C(C)(C)CCC2(C)C ?
Resp: N

Req: How did this test come out for Cn1c(=O)c(F)c(Nc2ccc(I)cc2F)c2c(=O)n(C[C@@H](O)CO)cnc21 ?
Resp: N

Req: Which result was noted for this compound in the test: N[C@@H](CC(=O)N1CCn2c(nnc2C(F)(F)F)C1)Cc1cc(F)c(F)cc1F
Resp: N

---

tested on: mouse p16Ink4a+/- lung fibroblasts (INKBRITE, bleomycin-injured); experiment: percentage of GFP+ (p16Ink4a+) fibroblasts among all cells in well; higher = less depletion of p16Ink4a+ cells, active = 20 or less; details: 1 µM; 3 days
Where a name gives a salt, the structure may show the parent alone. Out of some 1,800 compounds screened, about 50 (3%) showed activity. Shown is part of a subset that was picked to be rich in actives.
Could you please report measured percentage of GFP+ for the items listed next?

Below are worked cases with known answers.
COc1ccc2cc(-c3[nH]c(-c4ccc(S(C)=O)cc4)nc3-c3ccncc3)ccc2c1 (centres undefined)    43.3% (inactive)
CCCCCCCCCCCCCCCC(=O)OC1C(SC)OC(C(NC(=O)C2CC(CCC)CN2C)C(C)Cl)C(O)C1O (centres undefined) [Clindamycin palmitate HCl]    45.8% (inactive)
COc1ccc2c(c1)c(C1=C(c3c[nH]c4ccccc34)C(=O)NC1=O)cn2CCCN(C)C    60.7% (inactive)

Alright, here's another molecule for you.
Req: Output measured percentage of GFP+ for this item: O=C(O)c1cc(-c2ccccc2)nc2ccccc12
Resp: 46.7% (inactive)

---

tested on: mouse p16Ink4a+/- lung fibroblasts (INKBRITE, bleomycin-injured); test: percentage of GFP+ (p16Ink4a+) fibroblasts among all cells in well; higher = less depletion of p16Ink4a+ cells, active = 20 or less; conditions: 1 µM; 3 days
Among all 1,800 compounds or so, about 50 (3%) showed activity. The sample holds actives, similar compounds and a random draw of the others, so the mix is not that of the screen.
# output must be one of active, inactive

Reference set, count: 2
CC(=O)O/N=C1/C(=O)N(Cc2cc(Cl)ccc2Cl)c2ccc(Cl)cc21    inactive
O=C(O)c1ccccc1    inactive

Req: Tell me the recorded outcome of this test for C=CCNC(N)=S .
Resp: inactive

Req: What is the recorded call for this molecule in the test? O=C(O)CCNC(=O)c1ccccc1
Resp: inactive

Req: Tell me the assay call for C[C@@]1(c2cc(-c3cncnc3)c(F)cc2F)CCSC(N)=N1 please.
Resp: inactive

Req: Please let me know the test result on file for Nc1ccccc1NC(=O)c1ccc(CNC(=O)OCc2cccnc2)cc1 .
Resp: inactive

Req: What did the test return for CC(C)c1nc(N(C)S(C)(=O)=O)nc(-c2ccc(F)cc2)c1/C=C/[C@@H](O)C[C@@H](O)CC(=O)O ?
Resp: inactive

---

test system: mouse p16Ink4a+/- lung fibroblasts (INKBRITE, bleomycin-injured); experiment: percentage of GFP+ (p16Ink4a+) fibroblasts among all cells in well; higher = less depletion of p16Ink4a+ cells, active = 20 or less; settings: 1 µM; 3 days
Hit rate of the full screen: of about 1,800 compounds, about 50 (3%) showed activity. This is one part of a sample in which actives are shown more often than they occur.
Entry note: the call must match one of active, inactive

CC(C)Cc1ccc(C(C)C(=O)O)cc1 (racemic)    inactive
COc1cc2nccc(Oc3ccc(NC(=O)C4(C(=O)Nc5ccc(F)cc5)CC4)cc3)c2cc1OC [Cabozantinib]    inactive

Req: Field: outcome | Entry: COC(=O)[C@]12CCC(C)(C)C[C@@H]1[C@@H]1C(=O)C=C3[C@]4(C)C=C(C#N)C(=O)C(C)(C)[C@@H]4CC[C@@]3(C)[C@]1(C)CC2
Resp: active

Req: # fetch the recorded call for CCCCOc1ccc(C(=O)CCN2CCCCC2)cc1 here
Resp: inactive

Req: Which outcome did this test record for the compound Cc1c(-c2ccc(O)cc2)n(Cc2ccc(OCCN3CCCCCC3)cc2)c2ccc(O)cc12 ?
Resp: inactive

---

test system: mouse p16Ink4a+/- lung fibroblasts (INKBRITE, bleomycin-injured); experiment: percentage of GFP+ (p16Ink4a+) fibroblasts among all cells in well; higher = less depletion of p16Ink4a+ cells, active = 20 or less; conditions: 1 µM; 3 days
Counter-ions that a name gives are not always drawn. Out of some 1,800 compounds screened, about 50 (3%) showed activity. The sample holds actives, similar compounds and a random draw of the others, so the mix is not that of the screen.
Reported endpoint: percentage of GFP+

Observe how each entry below is paired with its result.
COc1ccccc1N1CCN(CCN2C(=O)CC3(CCCC3)CC2=O)CC1 [Bmy 7378 Dihydrochloride]    43.4% (inactive)
CC(=O)SCC(Cc1ccccc1)C(=O)NCC(=O)OCc1ccccc1 (stereo not given)    45% (inactive)

For each listed entry, give its percentage of GFP+.
1. Cn1c(=O)c2c(ncn2CC2OCCO2)n(C)c1=O
2. N=C(N)NC(=O)c1nc(Cl)c(N)nc1N [Amiloride]
3. CC(C)C[C@@H](C=O)NC(=O)[C@H](CC(C)C)NC(=O)[C@H](CC(C)C)NC(=O)OCc1ccccc1

Resp:
["41% (inactive)", "33.1% (inactive)", "7.69% (active)"]

---

system: mouse p16Ink4a+/- lung fibroblasts (INKBRITE, bleomycin-injured); experiment: percentage of GFP+ (p16Ink4a+) fibroblasts among all cells in well; higher = less depletion of p16Ink4a+ cells, active = 20 or less; conditions: 1 µM; 3 days
The whole screen tested about 1,800 compounds, of which about 50 (3%) showed activity. The entries come from a sample that favours actives as a whole.
Valid outcomes are listed here; reply with one: 1 (yes) = active, 0 (no) = inactive

Req: What was the test verdict on COc1cc([C@@H]2c3cc4c(cc3[C@@H](O[C@@H]3O[C@@H]5CO[C@@H](c6cccs6)O[C@H]5[C@H](O)[C@H]3O)[C@H]3COC(=O)[C@H]23)OCO4)cc(OC)c1O [Teniposide] ?
Resp: 0 (no)

Req: What classification did COc1cc([C@@H]2c3cc4c(cc3[C@@H](O[C@@H]3O[C@@H]5CO[C@@H](C)O[C@H]5[C@H](O)[C@H]3O)[C@H]3COC(=O)[C@H]23)OCO4)cc(OC)c1O [Etoposide] end up with in this test?
Resp: 1 (yes)

Req: Call for entry CCC(=O)Nc1cccc(Oc2nc(Nc3ccc(N4CCN(C)CC4)cc3OC)ncc2Cl)c1 :
Resp: 0 (no)

---

system: mouse p16Ink4a+/- lung fibroblasts (INKBRITE, bleomycin-injured); assay: percentage of GFP+ (p16Ink4a+) fibroblasts among all cells in well; higher = less depletion of p16Ink4a+ cells, active = 20 or less; details: 1 µM; 3 days
Among all 1,800 compounds or so, about 50 (3%) showed activity. The sample as a whole holds a higher share of actives than the screen did.
Provide the recorded percentage of GFP+ for the entries that follow.
One number for each entry, in %.

Some compounds with recorded percentage of GFP+:
N#CC1(c2ccc(NC(=O)c3cccnc3NCc3ccncc3)cc2)CCCC1    28
COc1ccc(Cn2ccc3ccc(C(=O)NO)cc32)cc1    47.2
CC(=O)NC[C@H]1CN(c2ccc(N3CCOCC3)c(F)c2)C(=O)O1    52.5
OC(CC1c2ccccc2-c2cncn21)C1CCCCC1 (stereo not given)    43
COc1ccc(CNc2nc(N3CCC[C@H]3CO)ncc2C(=O)NCc2ncccn2)cc1Cl    46.5
CC(C)C1CCC(C(=O)N[C@H](Cc2ccccc2)C(=O)O)CC1 (stereo not given in full) [Nateglinide]    46.5
Clc1ccc(C2(c3ccc(-c4cn[nH]c4)cc3)CCNCC2)cc1    43.8
C=CC(=O)Nc1cccc(Sc2nc(Nc3ccc(N4CCN(C)CC4)cc3)ncc2Cl)c1    46.3

For every record below, what is its percentage of GFP+?
1. O=NO [Sodium Nitrite]
2. CCc1c(Cl)c(O)c(Cl)c(O)c1C(=O)O[C@H]1[C@H](O)[C@H](OC)[C@H](OC/C2=C\C=C\C[C@H](O)/C(C)=C\[C@H](CC)[C@@H](O[C@@H]3OC(C)(C)[C@@H](OC(=O)C(C)C)[C@H](O)[C@@H]3O)/C(C)=C\C(C)=C/C[C@@H]([C@@H](C)O)OC2=O)O[C@@H]1C

Resp:
[52.2, 50.9]

Just for reference, the supplement of paper PMC11060735 is where these values come from.
